Assay Target: MGLL (Mus musculus, UniProt O35678)
Construct: Brain; from tissue; host or cells: mouse brain proteome
Sequence (O35678 1-303): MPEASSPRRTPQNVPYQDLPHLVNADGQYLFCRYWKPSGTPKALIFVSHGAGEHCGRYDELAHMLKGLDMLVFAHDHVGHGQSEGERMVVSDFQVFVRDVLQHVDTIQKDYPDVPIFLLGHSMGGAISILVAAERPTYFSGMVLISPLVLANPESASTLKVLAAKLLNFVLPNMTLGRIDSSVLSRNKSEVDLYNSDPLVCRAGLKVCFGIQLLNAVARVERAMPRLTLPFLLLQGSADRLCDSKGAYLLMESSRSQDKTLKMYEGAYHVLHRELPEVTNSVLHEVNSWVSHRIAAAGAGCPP
Experiment Summary: In vitro competitive activity-based protein profiling, mouse brain proteome (MGLL)
Type: biochemical
Run Conditions: concentration not given (μM)
Parameter: % Inh MGLL Brain (Mouse, μM)

[[record]]
compound = "CN(Cc1cccc(F)c1C1(C(=O)O)CCCC1)C1(C)CCN(C(=O)OC(C(F)(F)F)C(F)(F)F)CC1 [Example 144]"
assay_target = "MGLL (Mus musculus, UniProt O35678)"
observed = "### (### is ≥75%)"

[[record]]
compound = "CS(=O)(=O)N1CC2(CCN(c3cc(C(F)(F)F)ccc3CN3CCN(C(=O)OC(C(F)(F)F)C(F)(F)F)CC3)C2)C1 [Example 186]"
assay_target = "MGLL (Mus musculus, UniProt O35678)"
observed = "### (### is ≥75%)"

[[record]]
compound = "CN(Cc1ccc(C(F)(F)F)cc1N1CCCC1)C1(C)CCN(C(=O)OC(C(F)(F)F)C(F)(F)F)CC1 [Example 72]"
assay_target = "MGLL (Mus musculus, UniProt O35678)"
observed = "### (### is ≥75%)"

[[record]]
compound = "O=C(O)C1CCN(c2cc(C(F)(F)F)ccc2CN2CCC3(CC2)CCN(C(=O)OC(C(F)(F)F)C(F)(F)F)C3)CC1 [Example 195]"
assay_target = "MGLL (Mus musculus, UniProt O35678)"
observed = "### (### is ≥75%)"


* * *

Assay Target: ABHD6 (Mus musculus, UniProt Q8R2Y0)
Construct: Brain; from tissue; host or cells: mouse brain proteome
Sequence (Q8R2Y0 1-336): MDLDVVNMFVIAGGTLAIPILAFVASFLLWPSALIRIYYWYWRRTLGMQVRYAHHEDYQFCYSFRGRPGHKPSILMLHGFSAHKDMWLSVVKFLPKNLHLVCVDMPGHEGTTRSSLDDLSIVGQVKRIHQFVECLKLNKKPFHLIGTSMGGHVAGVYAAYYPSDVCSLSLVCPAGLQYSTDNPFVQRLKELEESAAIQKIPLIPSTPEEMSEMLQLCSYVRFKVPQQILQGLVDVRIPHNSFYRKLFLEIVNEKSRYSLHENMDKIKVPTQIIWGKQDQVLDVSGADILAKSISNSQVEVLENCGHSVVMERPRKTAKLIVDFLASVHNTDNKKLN
Experiment Summary: In vitro competitive activity-based protein profiling, mouse brain proteome (ABHD6)
Assay type: biochemical
Run Conditions: mouse brain proteome; concentration not given (μM)
Parameter: % Inh ABHD6 Brain (Mouse, μM)

[[record]]
molecule_smiles = "CC(C)(C#Cc1c(F)cccc1CN1CCCC12CCN(C(=O)OC(C(F)(F)F)C(F)(F)F)CC2)C(=O)O"
observed = "# (# is ≤25%)"

[[record]]
molecule_smiles = "CS(=O)(=O)N1CCC2(CCN(c3cc(C(F)(F)F)ccc3CN3CCN(C(=O)OC(C(F)(F)F)C(F)(F)F)CC3)CC2)C1"
observed = "# (# is ≤25%)"

[[record]]
molecule_smiles = "O=C(OC(C(F)(F)F)C(F)(F)F)N1CCC2(CCCN2C(=O)c2ccc(C(F)(F)F)cc2)CC1"
observed = "### (### is ≥75%)"

[[record]]
molecule_smiles = "CC(=O)N1CCC2(CC1)CCN(c1cc(C(F)(F)F)ccc1CN1CCN(C(=O)OC(C(F)(F)F)C(F)(F)F)CC1)C2"
observed = "# (# is ≤25%)"

[[record]]
molecule_smiles = "CC(=O)N1CC2(CCN(c3cc(Cl)cc(CN4CCCC45CN(C(=O)OC(C(F)(F)F)C(F)(F)F)C5)c3)CC2)C1"
observed = "### (### is ≥75%)"

[[record]]
molecule_smiles = "O=C(O)[C@H]1CCCN(c2cc(C(F)(F)F)ccc2CN2CC3(CCN(C(=O)OC(C(F)(F)F)C(F)(F)F)CC3)C2)C1"
observed = "### (### is ≥75%)"

[[record]]
molecule_smiles = "CN(Cc1cccc(Cl)c1C1(C(=O)O)CCCC1)C1(C)CCN(C(=O)OC(C(F)(F)F)C(F)(F)F)CC1"
observed = "# (# is ≤25%)"

